system: HeLa Kyoto; test: solubility change mitosis vs G1/S (difference of NP-40 vs SDS log2 ratios) (log2 ratio difference); higher = more soluble in mitosis
observation_type: solubility change mitosis (log2)

macromolecule_sequence="MAAPAVSGLSRQVRCFSTSVVRPFAKLVRPPVQVYGIEGRYATALYSAASKQNKLEQVEKELLRVAQILKEPKVAASVLNPYVKRSIKVKSLNDITAKERFSPLTTNLINLLAENGRLSNTQGVVSAFSTMMSVHRGEVPCTVTSASPLEEATLSELKTVLKSFLSQGQVLKLEAKTDPSILGGMIVRIGEKYVDMSVKTKIQKLGRAMREIV [ATP5O]" tested_target="HeLa Kyoto" observed=0.116
macromolecule_sequence="MAEGERQPPPDSSEEAPPATQNFIIPKKEIHTVPDMGKWKRSQAYADYIGFILTLNEGVKGKKLTFEYRVSEMWNEVHEEKEQAAKQSVSCDECIPLPRAGHCAPSEAIEKLVALLNTLDRWIDETPPVDQPSRFGNKAYRTWYAKLDEEAENLVATVVPTHLAAAVPEVAVYLKESVGNSTRIDYGTGHEAAFAAFLCCLCKIGVLRVDDQIAIVFKVFNRYLEVMRKLQKTYRMEPAGSQGVWGLDDFQFLPFIWGSSQLIDHPYLEPRHFVDEKAVNENHKDYMFLECILFITEMKTGPFAEHSNQLWNISAVPSWSKVNQGLIRMYKAECLEKFPVIQHFKFGSLLPIHPVTSG [PPP2R4]" tested_target="HeLa Kyoto" observed=-0.119
macromolecule_sequence="MAPLLLQLAVLGAALAAAALVLISIVAFTTATKMPALHRHEEEKFFLNAKGQKETLPSIWDSPTKQLSVVVPSYNEEKRLPVMMDEALSYLEKRQKRDPAFTYEVIVVDDGSKDQTSKVAFKYCQKYGSDKVRVITLVKNRGKGGAIRMGIFSSRGEKILMADADGATKFPDVEKLEKGLNDLQPWPNQMAIACGSRAHLEKESIAQRSYFRTLLMYGFHFLVWFLCVKGIRDTQCGFKLFTREAASRTFSSLHVERWAFDVELLYIAQFFKIPIAEIAVNWTEIEGSKLVPFWSWLQMGKDLLFIRLRYLTGAWRLEQTRKMN [ALG5]" tested_target="HeLa Kyoto" observed=-0.147
macromolecule_sequence="MFVPCGESAPDLAGFTLLMPAVSVGNVGQLAMDLIISTLNMSKIGYFYTDCLVPMVGNNPYATTEGNSTELSINAEVYSLPSRKLVALQLRSIFIKYKSKPFCEKLLSWVKSSGCARVIVLSSSHSYQRNDLQLRSTPFRYLLTPSMQKSVQNKIKSLNWEEMEKSRCIPEIDDSEFCIRIPGGGITKTLYDESCSKEIQMAVLLKFVSEGDNIPDALGLVEYLNEWLQILKPLSDDPTVSASRWKIPSSWRLLFGSGLPPALF [PSMG2]" tested_target="HeLa Kyoto" observed=-0.0561
macromolecule_sequence="MSKPPPKPVKPGQVKVFRALYTFEPRTPDELYFEEGDIIYITDMSDTNWWKGTSKGRTGLIPSNYVAEQAESIDNPLHEAAKRGNLSWLRECLDNRVGVNGLDKAGSTALYWACHGGHKDIVEMLFTQPNIELNQQNKLGDTALHAAAWKGYADIVQLLLAKGARTDLRNIEKKLAFDMATNAACASLLKKKQGTDAVRTLSNAEDYLDDEDSD [OSTF1]" tested_target="HeLa Kyoto" observed=-0.158
macromolecule_sequence="MYTFVVRDENSSVYAEVSRLLLATGHWKRLRRDNPRFNLMLGERNRLPFGRLGHEPGLVQLVNYYRGADKLCRKASLVKLIKTSPELAESCTWFPESYVIYPTNLKTPVAPAQNGIQPPISNSRTDEREFFLASYNRKKEDGEGNVWIAKSSAGAKGEGILISSEASELLDFIDNQGQVHVIQKYLEHPLLLEPGHRKFDIRSWVLVDHQYNIYLYREGVLRTASEPYHVDNFQDKTCHLTNHCIQKEYSKNYGKYEEGNEMFFKEFNQYLTSALNITLESSILLQIKHIIRNCLLSVEPAISTKHLPYQSFQLFGFDFMVDEELKVWLIEVNGAPACAQKLYAELCQGIVDIAISSVFPPPDVEQPQTQPAAFIKL [TTL]" tested_target="HeLa Kyoto" observed=-0.197
macromolecule_sequence="MAAQKINEGLEHLAKAEKYLKTGFLKWKPDYDSAASEYGKAAVAFKNAKQFEQAKDACLREAVAHENNRALFHAAKAYEQAGMMLKEMQKLPEAVQLIEKASMMYLENGTPDTAAMALERAGKLIENVDPEKAVQLYQQTANVFENEERLRQAVELLGKASRLLVRGRRFDEAALSIQKEKNIYKEIENYPTCYKKTIAQVLVHLHRNDYVAAERCVRESYSIPGFNGSEDCAALEQLLEGYDQQDQDQVSDVCNSPLFKYMDNDYAKLGLSLVVPGGGIKKKSPATPQAKPDGVTATAADEEEDEYSGGLC [NAPG]" tested_target="HeLa Kyoto" observed=0.178
macromolecule_sequence="MATQAHSLSYAGCNFLRQRLVLSTLSGRPVKIRKIRARDDNPGLRDFEASFIRLLDKITNGSRIEINQTGTTLYYQPGLLYGGSVEHDCSVLRGIGYYLESLLCLAPFMKHPLKIVLRGVTNDQVDPSVDVLKATALPLLKQFGIDGESFELKIVRRGMPPGGGGEVVFSCPVRKVLKPIQLTDPGKIKRIRGMAYSVRVSPQMANRIVDSARSILNKFIPDIYIYTDHMKGVNSGKSPGFGLSLVAETTSGTFLSAELASNPQGQGAAVLPEDLGRNCARLLLEEIYRGGCVDSTNQSLALLLMTLGQQDVSKVLLGPLSPYTIEFLRHLKSFFQIMFKIETKPCGEELKGGDKVLMTCVGIGFSNLSKTLK [RCL1]" tested_target="HeLa Kyoto" observed=0.888
macromolecule_sequence="MAQGWAGFSEEELRRLKQTKDPFEPQRRLPAKKSRQQLQREKALVEQSQKLGLQDGSTSLLPEQLLSAPKQRVNVQKPPFSSPTLPSHFTLTSPVGDGQPQGIESQPKELGLENSHDGHNNVEILPPKPDCKLEKKKVELQEKSRWEVLQQEQRLMEEKNKRKKALLAKAIAERSKRTQAETMKLKRIQKELQALDDMVSADIGILRNRIDQASLDYSYARKRFDRAEAEYIAAKLDIQRKTEIKEQLTEHLCTIIQQNELRKAKKLEELMQQLDVEADEETLELEVEVERLLHEQEVESRRPVVRLERPFQPAEESVTLEFAKENRKCQEQAVSPKVDDQCGNSSSIPFLSPNCPNQEGNDISAALAT [GORAB]" tested_target="HeLa Kyoto" observed=0.118

* * *

Collected thermal stability score values appear next to each entry.
system: HeLa Kyoto; test: thermal stability score vs G1/S (z-score of summed log2 fold changes over temperatures); higher = more thermally stable than in G1/S; details: cell cycle stage: mitosis
observation_type: thermal stability score

macromolecule_sequence="MHQQKRQPELVEGNLPVFVFPTELIFYADDQSTHKQVLTLYNPYEFALKFKVLCTTPNKYVVVDAAGAVKPQCCVDIVIRHRDVRSCHYGVIDKFRLQVSEQSQRKALGRKEVVATLLPSAKEQQKEEEEKRLKEHLTESLFFEQSFQPENRAVSSGPSLLTVFLGVVCIAALMLPTLGDVESLVPLYLHLSVNQKLVAAYILGLITMAILRT [MOSPD1]" observed=-2.15
macromolecule_sequence="MAPSGSLAVPLAVLVLLLWGAPWTHGRRSNVRVITDENWRELLEGDWMIEFYAPWCPACQNLQPEWESFAEWGEDLEVNIAKVDVTEQPGLSGRFIITALPTIYHCKDGEFRRYQGPRTKKDFINFISDKEWKSIEPVSSWFGPGSVLMSSMSALFQLSMWIRTCHNYFIEDLGLPVWGSYTVFALATLFSGLLLGLCMIFVADCLCPSKRRRPQPYPYPSKKLLSESAQPLKKVEEEQEADEEDVSEEEAESKEGTNKDFPQNAIRQRSLGPSLATDKS [TMX1]" observed=1.24
macromolecule_sequence="MEGMDVDLDPELMQKFSCLGTTDKDVLISEFQRLLGFQLNPAGCAFFLDMTNWNLQAAIGAYYDFESPNISVPSMSFVEDVTIGEGESIPPDTQFVKTWRIQNSGAEAWPPGVCLKYVGGDQFGHVNMVMVRSLEPQEIADVSVQMCSPSRAGMYQGQWRMCTATGLYYGDVIWVILSVEVGGLLGVTQQLSSFETEFNTQPHRKVEGNFNPFASPQKNRQSDENNLKDPGGSEFDSISKNTWAPAPDTWAPAPDQTEQDQNRLSQNSVNLSPSSHANNLSVVTYSKGLHGPYPFGQS [C6ORF106]" observed=0.668

* * *

system: HeLa Kyoto; experiment: melting temperature (median over replicates), in situ; higher = more thermally stable; conditions: cell cycle stage: mitosis
observation_type: melting temperature (°C)

macromolecule_sequence="MAFVTRQFMRSVSSSSTASASAKKIIVKHVTVIGGGLMGAGIAQVAAATGHTVVLVDQTEDILAKSKKGIEESLRKVAKKKFAENLKAGDEFVEKTLSTIATSTDAASVVHSTDLVVEAIVENLKVKNELFKRLDKFAAEHTIFASNTSSLQITSIANATTRQDRFAGLHFFNPVPVMKLVEVIKTPMTSQKTFESLVDFSKALGKHPVSCKDTPGFIVNRLLVPYLMEAIRLYERGDASKEDIDTAMKLGAGYPMGPFELLDYVGLDTTKFIVDGWHEMDAENPLHQPSPSLNKLVAENKFGKKTGEGFYKYK [HADH]" observation_type="melting temperature" observed=53.7
macromolecule_sequence="MSLEQEEETQPGRLLGRRDAVPAFIEPNVRFWITERQSFIRRFLQWTELLDPTNVFISVESIENSRQLLCTNEDVSSPASADQRIQEAWKRSLATVHPDSSNLIPKLFRPAAFLPFMAPTVFLSMTPLKGIKSVILPQVFLCAYMAAFNSINGNRSYTCKPLERSLLMAGAVASSTFLGVIPQFVQMKYGLTGPWIKRLLPVIFLVQASGMNVYMSRSLESIKGIAVMDKEGNVLGHSRIAGTKAVRETLASRIVLFGTSALIPEVFTYFFKRTQYFRKNPGSLWILKLSCTVLAMGLMVPFSFSIFPQIGQIQYCSLEEKIQSPTEETEIFYHRGV [SFXN4]" observation_type="melting temperature" observed=54.8
macromolecule_sequence="MAQVLRGTVTDFPGFDERADAETLRKAMKGLGTDEESILTLLTSRSNAQRQEISAAFKTLFGRDLLDDLKSELTGKFEKLIVALMKPSRLYDAYELKHALKGAGTNEKVLTEIIASRTPEELRAIKQVYEEEYGSSLEDDVVGDTSGYYQRMLVVLLQANRDPDAGIDEAQVEQDAQALFQAGELKWGTDEEKFITIFGTRSVSHLRKVFDKYMTISGFQIEETIDRETSGNLEQLLLAVVKSIRSIPAYLAETLYYAMKGAGTDDHTLIRVMVSRSEIDLFNIRKEFRKNFATSLYSMIKGDTSGDYKKALLLLCGEDD [ANXA5]" observation_type="melting temperature" observed=49.4
